Where do the numbers come from? From paper PMC7703752.

# targetOrTestSystem: T1, FAT domain of human FAK (892–1052) (human, UniProt Q05397 892-1052)
# T1 chain: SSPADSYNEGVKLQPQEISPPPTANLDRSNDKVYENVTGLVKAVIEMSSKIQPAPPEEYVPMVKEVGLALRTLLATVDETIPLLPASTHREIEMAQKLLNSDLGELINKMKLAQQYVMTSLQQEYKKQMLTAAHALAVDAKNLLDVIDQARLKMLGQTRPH
# assayName: FP
Where no end group is shown, it is not given here.
// reported Kd per item
The answer is to be given in µM; state only the numeric part.

EDVLDELLQYLGVT (also: N-terminal FITC-Ahx only in labelled form, predicted LD motif of human RALGAPA1; also called RGPA1; source: synthetic peptide, bought: GenScript) [RALGAPA1 LD motif peptide] = 43.6
ATDELDALLASLTENLID (also: N-terminal FITC-Ahx only in labelled form, predicted LD motif of human EPB41L5 (Band 4.1-like protein 5); also called E41L5; YMO1; source: synthetic peptide, bought: GenScript) [EPB41L5 (Band 4.1-like protein 5) LD motif peptide] = 2.7

Read the next record carefully.
Q. Entry AEIDSLTSILADLESS (also: also used as N-terminal FITC-Ahx-labelled form) [LPP (Lipoma-preferred partner) LD motif peptide] has what Kd?
A. 97.4
